System: TRPC4 beta (transient receptor potential cation channel C4), mouse
Test: TRPC4 cation channel opening, retest – cell-based, Fluo4 calcium, HEK293 TRPC4beta/mu-opioid, duplicates, 10 µM, confirmation (AID 2426)
Settings: Fluo4 calcium fluorescence, at 10 µM
The source made the active and inactive calls.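 Rule for the calls: active = fluorescence ratio normalized to control raised more than 50% in primary screen plus both repeat runs; inactive = the rest.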
In this exercise, the only acceptable responses are active, inactive

Consider the following illustrative entries.
>>> assigned_label("CCn1c(=O)c2cc(C(=O)N(C)c3cc(C)ccc3OC)sc2c2ccccc21")
"inactive"
>>> assigned_label("COC(=O)c1ccc(N2CCN(C)CC2)c(NC(=O)c2cccs2)c1")
"active"
>>> assigned_label("Cc1nc2c3cc(Cl)ccc3n(CCN3CCCCC3)c2s1")
"inactive"
>>> assigned_label("Fc1ccccc1COc1ccc(Br)cc1CNCC1CCCO1 (stereo not given)")
"inactive"

Lookup: Dear all, I need the recorded test outcome for "CCC(=O)Nc1cc(ON=C(C)C)cc([N+](=O)[O-])c1" , thank you.
Found: inactive

Lookup: What did the test return for "CCOC(=O)c1ccc(N=C2C(=S)N(c3ccc(C(=O)OCC)cc3)C(=N)N2/N=C/c2ccccc2)cc1" ?
Found: inactive

Lookup: Given "CCN1CCN(c2c(Cl)cccc2NC(=O)c2ccc([N+](=O)[O-])cc2)CC1" , state the outcome it received in this test.
Found: active

Lookup: Called result for "Cc1cc2nc3s/c(=C/c4ccc(-c5ccccc5C(=O)O)o4)c(=O)n3c2cc1C"
Found: active

Lookup: // return assay outcome for CCOc1ccccc1C1CC(c2ccc(Cl)cc2)Nc2nc(N)nn21 (stereo not given)
Found: active

Lookup: // outcome(item) with item = CCCN(C(=O)COC(=O)C12CCC(=O)N1c1ccccc1S2)c1c(N)n(Cc2ccccc2)c(=O)[nH]c1=O (stereo not given)
Found: inactive

* * *

Tested on: TRPC4 (transient receptor potential cation channel C4 beta), mouse
Assay: potentiation of DAMGO EC20 TRPC4 response – cell-based, second round, Fluo-4, HEK293 TRPC4beta/mu-opioid, 1 µM, confirmation (AID 2554)
Conditions: DAMGO EC20, Fluo-4 calcium flux, at 1 µM
Activity calls are given as the source filed them.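 How the source made its calls: active means primary screen hit whose fluorescence ratio, in both repeats, exceeds the weak agonist control mean by 3 SD; inactive means the rest.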
Answer with one of the outcomes given here: active, inactive

Consider the following illustrative entries.
>>> assigned_label("COc1cc(C(=O)N(CCc2ccccc2)C2=CC3CCC(C2)N3C)cc(OC)c1OC (stereo unspecified)")
"inactive"
>>> assigned_label("Cc1ccc(-c2[nH]c3ccccc3c2SCCN)cc1")
"inactive"
>>> assigned_label("CN(C)CCCN(C(=O)c1ccc(Cl)s1)c1nc2cc3c(cc2s1)OCO3")
"inactive"
>>> assigned_label("CCC(C)NC(C(=O)Nc1ccc(Cl)c([N+](=O)[O-])c1)c1ccccc1 (stereo unspecified)")
"inactive"
>>> assigned_label("CCOC(=O)C1(Cc2cccc(F)c2)CCN(Cc2cnn(CC)c2)CC1")
"inactive"
>>> assigned_label("CCCN1Cc2cccc(C(=O)N3CCN(c4cc(Cl)ccc4C)CC3)c2C1=O")
"inactive"

Lookup: Please let me know the test result on file for "CCN1CCN(c2nc(N)c([N+](=O)[O-])c(Nc3ccc(C)c(C)c3)n2)CC1" .
Found: inactive

Lookup: What call does the record list for "Cc1cccc(Cn2c(=O)c3c(nc4n3CCCN4Cc3ccccc3)n(C)c2=O)c1" ?
Found: active

Lookup: Recorded test outcome, item "CNC(=S)N1CCN(C(c2ccccc2)c2ccccc2)CC1"
Found: inactive

Lookup: Name the outcome recorded for COc1ccc(C(CNC(=O)COc2ccccc2OC)N(C)C)cc1OC (stereo unspecified) in the assay.
Found: inactive

Lookup: How did this test come out for "Cc1cc(Br)c(NC(=O)CN(C)CCOc2ccccc2)c(Br)c1" ?
Found: inactive
